# tested.system: T1, IL-2Rβ (UniProt P14784 27-240, limits assumed, biotinylated (site not stated))
# T1 construct: also called CD122; IL-2Rbeta
# T1 sequence (looked up): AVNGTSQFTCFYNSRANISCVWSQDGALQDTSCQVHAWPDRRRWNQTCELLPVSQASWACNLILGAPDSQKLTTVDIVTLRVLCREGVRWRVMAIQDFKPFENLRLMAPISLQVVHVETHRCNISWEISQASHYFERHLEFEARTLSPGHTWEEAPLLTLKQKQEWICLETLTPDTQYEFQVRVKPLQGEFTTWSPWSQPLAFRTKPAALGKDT
# assay.explanation: SPR Biacore T100, kinetic fit; biotinylated IL-2Rβ on chip
measurement.name: pKd
FYI, pKd means -log10 of a concentration in mol per litre.

Input in silico designed IL-2 variant SEQ ID NO: 1, MSA fusion protein (ligand, not shown: large carriers; small tags and cut ends) APTSSSTKKTQLQLEHLLLDLQMILNMLNNYDNPKLTRLLTFKFYMPKKATSLKHLQCLEEELKPLEEALNAAGDDPKTIRDVVSNINVFVLELKGSETTFMCEYADETATIIEFLNRWITFCQSIISTLT , output reported pKd.
7.60

Identify measured pKd corresponding to in silico designed IL-2 variant SEQ ID NO: 11, MSA fusion protein (ligand, not shown: large carriers; small tags and cut ends) APTSSSTKKTQLQLEHLLLDLQMILNMLNNYSNPKLTRLLTFKFYMPKKATSLKHLQCLEEELKPLEEALNLASDDQDKVRDVVSNINVFVLELKGSETTFMCEYADETATIIEFLNRWITFCQSIISTLT
8.06

Give recorded pKd. in silico designed IL-2 variant SEQ ID NO: 9, MSA fusion protein (ligand, not shown: large carriers; small tags and cut ends) APTSSSTKKTQLQLEHLLLDLQMILNMLNNYDNPKLTRLLTFKFYMPKKATSLKHLQCLEEELKPLEEALNQADSTDSRIRDLISNINVIVLELKGSETTFMCEYADETATIIEFLNRWITFCQSIISTLT
6.48

Answer with the recorded pKd of in silico designed IL-2 variant SEQ ID NO: 3, MSA fusion protein (ligand, not shown: large carriers; small tags and cut ends) APTSSSTKKTQLQLEHLLLDLQMILNMLNNYDNPKLTRLLTFKFYMPKKATSLKHLQCLEEELKPLEEALNAAGDDPKTIRDLISNINVIVLELKGSETTFMCEYADETATIIEFLNRWITFCQSIISTLT only.
6.55

Query pKd for in silico designed IL-2 variant SEQ ID NO: 7, MSA fusion protein (ligand, not shown: large carriers; small tags and cut ends) APTSSSTKKTQLQLEHLLLDLQMILNMLNNYDNPKLTRMLTFKFYMPKKATELKHLQCLEEELKPLEEALNQADSTDETVRDLISNINVIVLELKGSETTFMCEYADETATIIEFLNRWITFCQSIISTLT
7.25

Annotate the binder in silico designed IL-2 variant SEQ ID NO: 14, MSA fusion protein (ligand, not shown: large carriers; small tags and cut ends) APTSSSTKKTQLQLEHLLLDLQMILNMLNNYDNPKLTRMLTFKFYMPKKATELKHLQCLEEELKPLEEALNLAQSKNFHLDPRDLISNINVIVLELKGSETTFMCEYADETATIIEFLNRWITFCQSIISTLT with its measured pKd.
6.77
